Tested on: RARg:RXRa (NR concentration 270 nM, RXRa partner concentration 90 nM)
Test: PBM binding z-score (relative to random genomic background probes); higher = stronger binding; sequences stand for … in GC…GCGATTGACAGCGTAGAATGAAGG
Mark fulfilled for reported PBM binding z-score of 2 or greater; mark not fulfilled for anything smaller.

For orientation, consider the following solved cases.
>  <biosequence>
CAGCCTAGGTCAGGGCCAGAATAGGAGGAACGTT

>  <assigned_class>
fulfilled

$$$$
>  <biosequence>
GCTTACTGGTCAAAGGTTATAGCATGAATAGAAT

>  <assigned_class>
fulfilled

$$$$
>  <biosequence>
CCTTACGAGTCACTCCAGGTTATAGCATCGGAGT

>  <assigned_class>
not fulfilled

$$$$
>  <biosequence>
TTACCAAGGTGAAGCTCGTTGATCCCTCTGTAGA

>  <assigned_class>
not fulfilled

$$$$
>  <biosequence>
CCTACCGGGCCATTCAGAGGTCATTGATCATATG

>  <assigned_class>
fulfilled

$$$$

Is reported PBM binding z-score greater than or equal to 2 here: TAGCCTAGGTCATGCGGACCAGTATAGTGTCGGC
fulfilled

Check the entry AATACAGGGTCAATAGGCCAGAGTAGGTACGAAT : does PBM binding z-score equal or exceed 2?
fulfilled

Threshold query (PBM binding z-score >= 2) on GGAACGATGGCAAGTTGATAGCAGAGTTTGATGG
not fulfilled

Evaluate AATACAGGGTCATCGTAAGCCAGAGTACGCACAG : PBM binding z-score at minimum 2?
fulfilled

Record CCTACTGGGCCATAGGTCATTGATTCCAATGCTC ; criterion: PBM binding z-score no lower than 2. Met?
fulfilled

In plain terms: is recorded PBM binding z-score at least 2 for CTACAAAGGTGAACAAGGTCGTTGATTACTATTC ?
fulfilled

Determine whether this sequence has PBM binding z-score no lower than 2: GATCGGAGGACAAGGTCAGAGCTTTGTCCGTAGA
fulfilled

Could you verify whether the entry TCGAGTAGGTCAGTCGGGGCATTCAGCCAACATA shows PBM binding z-score of no less than 2?
fulfilled

Could you please find out whether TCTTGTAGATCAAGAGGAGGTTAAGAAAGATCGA has PBM binding z-score that meets 2 or exceeds it?
not fulfilled

# bool: PBM binding z-score of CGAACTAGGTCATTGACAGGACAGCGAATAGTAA >= 2
fulfilled

For this sequence, is measured PBM binding z-score 2 or higher? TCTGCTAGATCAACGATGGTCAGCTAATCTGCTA
not fulfilled

Kindly determine if PBM binding z-score recorded for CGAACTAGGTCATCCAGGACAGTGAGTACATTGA is above or exactly 2.
fulfilled

Is PBM binding z-score at least 2? Consider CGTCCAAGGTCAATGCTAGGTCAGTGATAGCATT
fulfilled

Entry CCGACTAGGGCAAAGGTTACCATACTCAGTACGA : is its PBM binding z-score no less than 2?
fulfilled

Please indicate if the recorded PBM binding z-score for GCTACTAGGTCAACTGATGGTCAGCTAAAGCTCG meets or exceeds 2.
fulfilled

Could you please find out whether AGTCAAAGTTCAGGACGAGGAAACGTAAAGCACG has PBM binding z-score that meets 2 or exceeds it?
fulfilled

Check this sequence for PBM binding z-score at or above 2: TATACAGGGTCAAAGGCGAGAGTACGAATGTCGA
fulfilled

hey, is PBM binding z-score for this one >= 2? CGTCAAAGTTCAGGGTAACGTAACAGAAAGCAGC
fulfilled

Dear colleague, could you confirm whether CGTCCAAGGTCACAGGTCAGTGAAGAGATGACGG has PBM binding z-score at or above 2?
fulfilled

Does the sequence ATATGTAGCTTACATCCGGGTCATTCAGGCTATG have recorded PBM binding z-score that is 2 or more?
not fulfilled

PBM binding z-score >= 2 for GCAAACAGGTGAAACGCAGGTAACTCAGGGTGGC ?
not fulfilled

Where do these numbers come from? They come from the supplement of paper PMC6555819.
